Reported relative viability is given for each of the following molecules.
# System: H3255
# TEST SUMMARY: relative viability (nuclei count vs DMSO), 5 days (fraction); higher = more cells survive
# ASSAY CONTEXT: first compound 0.08 µM

MOLECULE	TESTED SYSTEM	relative viability
COc1nc(C)cnc1NS(=O)(=O)c1cccnc1-c1ccc(-c2nnco2)cc1 [Zibotentan] + Nc1ncn([C@H]2C[C@H](O)[C@@H](CO)O2)c(=O)n1 [Decitabine] (partner 2 µM)	H3255	0.671
COc1nc(C)cnc1NS(=O)(=O)c1cccnc1-c1ccc(-c2nnco2)cc1 [Zibotentan] + C[C@]1(O)C[C@@H](c2nc(-c3ccc4ccc(-c5ccccc5)nc4c3)c3c(N)nccn32)C1 [Linsitinib] (partner 1 µM)	H3255	1.02
O=c1cc(-c2cccc3c2Sc2ccccc2S3)oc(N2CCOCC2)c1 + COc1cccc2cc(-c3nc([C@H]4CC[C@H](C(=O)O)CC4)n4ncnc(N)c34)[nH]c12 [OSI-027] (partner 0.5 µM)	H3255	0.61
COc1nc(C)cnc1NS(=O)(=O)c1cccnc1-c1ccc(-c2nnco2)cc1 [Zibotentan] + CC(=O)c1c(C)c2cnc(Nc3ccc(N4CCNCC4)cn3)nc2n(C2CCCC2)c1=O [Palbociclib] (partner 0.5 µM)	H3255	0.317

Provenance of the data: the supplement of paper PMC10307832
